system: T1, hu-sCD47-6His; extracellular domain of human CD47 antigen with 6His-tag (human)
T1 construct: also called hCD47-his; soluble hCD47
test_details: SPR Biacore T200, antibody captured, hCD47-his analyte;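 also: antibodies captured on anti-IgG (Fc) CM5 chip, five sequential 10 min antigen injections at rising concentrations, reference flow cell and antigen-free cycle as controls, 1:1 model fit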
assay_metric: pKd
# log scale: pKd equals minus log10 of the concentration in mol/L

| binder | pKd |
| --- | --- |
| Candidate 26 (VT008-AL6-10G3-10K1), mouse IgG (antibody, V domains shown, Recombinant mouse IgG2a or mIgG1 format, by assay) VH: QVQLQQPGPELVKPGASVKLSCKASGYTFTNYWIHWLNQRPGRGLEWIGRIDPNSGGTKYNEKFKSKAILTVDKSSSTTYMQLSSLTSEDSAVYYCARGGYTMDYWGQGTSVTVSS VL: DVVMPQTPLSLPVSLGDHASISCRSSQSLLHSNGNTYLHWYLQKPGQSPKLLIYKVSYRFSGVPDRISGSGSGTDFTLKISRVEAEDLGVYFCFQSTHVPWTFGGGTKLEIK | 8.73 |
| 2A1 (mouse antibody from Inhibrx) (antibody, V domains shown) VH: EVQLQQSGAELVRSGASVKLSCTASGFNIKDYYLHWVKQRPEQGLEWIGWIDPDNGDTEFAPKFQGKATMTADTSSNTAYLQLSSLTSEDTAVYYCNAAYGSSSYPMDYWGQGTSVTV VL: DIKMTQSPSSLYASLGERVTITCKASQDIHRYLSWFQQKPGKSPKILIYRANRLVDGVPSRFSGSGSGQDYSLTISSLEYEDMGIYYCLQYDEFPYTFGGGTKLEMK | 9.90 |

Please examine the following record next.
Sample Candidate 15 (VT008-AL6-18G1-18K21), mouse IgG (antibody, V domains shown, Recombinant mouse IgG2a or mIgG1 format, by assay) VH: QVQLQQPGAELVKPGTSVKLSCKASGYTFINYWIHWVKQRPGRGLEWIGRIDPNTVDAKYNEKFKSKATLTVDKPSSIAYMQLSSLTSEDSAVYYCSRGGYTMDYWGQGTSVTVSS VL: DVVMTQTPLSLPVSLGDQASISCRSSQSLVHSNGNTYLHWYLQKPGQSPTLLIYKVSNRFSGVPDRFSGSGSGTDFTLKISRVEAEDLGIYFCFQSTHVPWTFGGGTKLEIK ; pKd observed: 8.37
